meta.source: BigSolDB 2.1

Details: in methanol, 318.95 K
readout_kind: solubility (mole fraction)
Please reply with the value in numeric form only.

QUERY: Quote solubility (mole fraction) reported for Clc1ccc(SSc2ccc(Cl)cc2)cc1 please.
RESULT: 0.00552

----------
Details: in methanol, 303.15 K
readout_kind: solubility (mole fraction)
Please reply with the value in numeric form only.

QUERY: Quote solubility (mole fraction) reported for Clc1ccc(SSc2ccc(Cl)cc2)cc1 please.
RESULT: 0.00014

----------
Conditions: in methanol, 314.15 K
readout_kind: solubility (mole fraction)

QUERY: Quote solubility (mole fraction) reported for Clc1ccc(SSc2ccc(Cl)cc2)cc1 please.
RESULT: 0.00259
